experiment: soluble on expression in E. coli; label from the status in PepcDB or PDB records
reported.property: soluble on expression in E. coli

sequence.input: MRDHRPTATDELIQASKLKQIQEHAKAILLINRQLQDILPKGLKTQVRAANVRGGNLVLEAASAALKMKVDYERLHILTQLRQNGFGHLISIEVRVNPELYRQSKITSEDARAANPRPPLSEHAAHVLLAIADQASDKVKKRLQSLARLAKANQKDD
soluble on expression in E. coli: not soluble
--
sequence.input: MEAQNRIEDHGIIGDMRSAALIADTGSIDFCCWPDFDSPSIFTALLDTPDAGIFQLAPDLPDARRLQIYLPDTNVLQTRWIAEQAVVEVTDLMPIGEDQDDLPRIVRRVQVRFGEATIRMRCRVRMDYSRALEHHHHHH
soluble on expression in E. coli: not soluble
--
sequence.input: MANFESSVKVIPYSQERVYAKLSDLSNLESVKGRLPEDKIQDLSFDSDTLSFSVSPIGQLTLQIVEREPCKCIKLATTNSPLPFNMWIQLVSTAEEECKLKVTISMDINPFMKAMVQKPLQDGLEKMVEMLSMINYLEHHHHHH
soluble on expression in E. coli: soluble
--
sequence.input: SDRWEVPVNPSNVRSASSHQTVSASDRASDKVDERPATFSHFQLARCGEDYTLSMVSLAAYQAERRHRGNLIKDRSQSALPWVQVYHSETGLDYSFQIDRTTTVKVAGFNYNVPNDGETRHLYSAGTSQVNMPVITDNMSACIAVACAAENVDAGTGERRPGAKVRVFHLLPFRREDLMPEQVLASVRDYLRDIKEQGLTMRVALHGGNREGDFSVSTAEALKSLFADEGIPIEFDETCANRTSETLLGAVILNDNSTQFIKH
soluble on expression in E. coli: not soluble
--
sequence.input: MGHHHHHHSHMHDSANCELPLLTPCSKAVMSQALKATFSGFKKEQRRLGIPKNPWLWSEQQVCQWLLWATNEFSLVNVNLQRFGMNGQMLCNLGKERFLELAPDFVGDILWEHLEQMIKENQEKTE
soluble on expression in E. coli: not soluble

Looking up "MSLMPFHLAIPVHDLPAARRFYGEVFGLSEGRSAEHWVDFDFFGHQLVIHQHPQTDSQRHAGSNPVDGHDVPVPHFGVVLAWDDWHALAERLQQRGTRFVIEPYIRFKGQVGEQATLFLFDPCGNALEFKSFRDMGQLFAKLEHHHHHH" , I found its soluble on expression in E. coli recorded as soluble

Looking up "MSLIVNFHKVNLKKKYPLQISRGTHSKSQNLFVEIIKDGITGWGESAPGKTEGASNADEVEKWLLKLIDTGIDSLSIYEIFQRSKDLNIPPCVHAAIDIALWDWKAKKAGLPLNNLLGLPTPSTPTSLTIGINPPEIIKERVEMLLSNPQIKALKIKLGSPDGIEYDKSIYSQVLESTKKSNISIRVDANGGWSLDEAKLMMKWLAERKAEYIEQPLVEGEEDKLKYLFKSRPLPIFIDESCRFSEDVARHFEYVDGVNLKLMKCGGITEALRILNVAKSHNLKTMIGCMSESSISISAGASISGIIDYVDLDSHYNLDPDPSEGATMIDGITMNDNKPGHGSKLKIENYAEGHHHHHH" , I found its soluble on expression in E. coli recorded as soluble
